target: UniProtKB P28223; assay: Displacement of [3H]ketanserin from 5HT2A receptor (unknown origin) at 10 uM
Sequence (P28223 whole entry): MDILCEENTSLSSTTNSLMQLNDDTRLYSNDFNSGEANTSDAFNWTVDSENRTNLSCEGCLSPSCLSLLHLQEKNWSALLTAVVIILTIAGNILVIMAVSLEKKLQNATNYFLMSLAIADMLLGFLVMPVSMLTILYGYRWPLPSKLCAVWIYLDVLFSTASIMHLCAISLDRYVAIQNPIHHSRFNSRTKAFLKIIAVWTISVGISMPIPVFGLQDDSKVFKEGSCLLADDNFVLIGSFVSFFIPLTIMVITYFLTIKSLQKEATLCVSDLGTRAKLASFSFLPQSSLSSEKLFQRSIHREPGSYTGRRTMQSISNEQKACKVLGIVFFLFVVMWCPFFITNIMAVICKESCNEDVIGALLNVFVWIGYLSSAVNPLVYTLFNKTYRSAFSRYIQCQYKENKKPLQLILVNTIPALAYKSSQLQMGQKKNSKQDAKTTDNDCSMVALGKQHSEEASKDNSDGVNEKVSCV
Entries and their measured inhibition follow.
Could you give me the number in %? Just the number is fine.

CCN1CC(c2ccccc2)c2cc(OC)c(OC)c3c2C1Cc1cc2c(cc1-3)OCO2 (stereo unspecified); 12.8

inhibition reading for CCCCOc1c(OC)cc2c3c1-c1cc4c(cc1CC3N(C)CC2c1ccccc1)OCO4 (stereo unspecified) : 40.9

inhibition reading for COc1cc2c3c(c1OC)-c1cc4c(cc1CC3N(CC1CC1)CC2c1ccccc1)OCO4 (stereo unspecified) : 9.6

inhibition reading for COc1cc2c3c(c1OC)-c1cc4c(cc1CC3N(C)CC2c1ccccc1)OCO4 (stereo unspecified) : 33.5

inhibition reading for COc1cc2c3c(c1OCC1CC1)-c1cc4c(cc1CC3N(C)CC2c1ccccc1)OCO4 (stereo unspecified) : 42.9

inhibition reading for CCCCCCOc1c(OC)cc2c3c1-c1cc4c(cc1CC3N(C)CC2c1ccccc1)OCO4 (stereo unspecified) : 19.9

inhibition reading for COc1cc2c3c(c1O)-c1cc4c(cc1CC3N(C)CC2c1ccccc1)OCO4 (stereo unspecified) : 29.2

inhibition reading for C=CCOc1c(OC)cc2c3c1-c1cc4c(cc1CC3N(C)CC2c1ccccc1)OCO4 (stereo unspecified) : 47.8

inhibition reading for COc1cc2c3c(c1OCc1ccc(Br)cc1)-c1cc4c(cc1CC3N(C)CC2c1ccccc1)OCO4 (stereo unspecified) : 15.8

inhibition reading for CCOc1c(OC)cc2c3c1-c1cc4c(cc1CC3N(C)CC2c1ccccc1)OCO4 (stereo unspecified) : 40.1

inhibition reading for CCCOc1c(OC)cc2c3c1-c1cc4c(cc1CC3N(C)CC2c1ccccc1)OCO4 (stereo unspecified) : 32.3

====

Entries and their measured inhibition follow.
biological target: 5-hydroxytryptamine receptor 3A (Homo sapiens) (UniProt P46098); assay: Displacement of [3H]LY278584 from 5HT3 receptor (unknown origin) at 10 uM
Sequence (P46098 whole entry): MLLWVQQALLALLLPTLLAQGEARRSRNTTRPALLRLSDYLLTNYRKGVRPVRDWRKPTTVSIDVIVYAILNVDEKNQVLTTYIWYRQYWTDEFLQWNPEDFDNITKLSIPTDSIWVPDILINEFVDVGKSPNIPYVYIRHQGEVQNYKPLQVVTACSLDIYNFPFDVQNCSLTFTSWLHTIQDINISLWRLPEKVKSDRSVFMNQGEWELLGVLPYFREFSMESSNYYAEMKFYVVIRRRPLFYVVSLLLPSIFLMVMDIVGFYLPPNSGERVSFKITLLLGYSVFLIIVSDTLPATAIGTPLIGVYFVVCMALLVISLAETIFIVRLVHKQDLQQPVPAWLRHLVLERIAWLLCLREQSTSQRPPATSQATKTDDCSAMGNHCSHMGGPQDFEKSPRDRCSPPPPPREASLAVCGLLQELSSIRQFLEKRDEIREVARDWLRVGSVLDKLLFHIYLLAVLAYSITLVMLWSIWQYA
Could you give me the number in %? Just the number is fine.

COc1cc2c3c(c1OC)-c1cc4c(cc1CC3N(C)CC2c1ccccc1)OCO4 (stereo not given); 8
C=CCOc1c(OC)cc2c3c1-c1cc4c(cc1CC3N(C)CC2c1ccccc1)OCO4 (stereo not given); 8.3
CCOc1c(OC)cc2c3c1-c1cc4c(cc1CC3N(C)CC2c1ccccc1)OCO4 (stereo not given); -2.7
CCCCOc1c(OC)cc2c3c1-c1cc4c(cc1CC3N(C)CC2c1ccccc1)OCO4 (stereo not given); 11.6
COc1cc2c3c(c1O)-c1cc4c(cc1CC3N(C)CC2c1ccccc1)OCO4 (stereo not given); 4.1
COc1cc2c3c(c1OCc1ccc(Br)cc1)-c1cc4c(cc1CC3N(C)CC2c1ccccc1)OCO4 (stereo not given); -7.4

inhibition reading for CCCCCCOc1c(OC)cc2c3c1-c1cc4c(cc1CC3N(C)CC2c1ccccc1)OCO4 (stereo not given) : 0.8

inhibition reading for CCCOc1c(OC)cc2c3c1-c1cc4c(cc1CC3N(C)CC2c1ccccc1)OCO4 (stereo not given) : 0.7

inhibition reading for CCN1CC(c2ccccc2)c2cc(OC)c(OC)c3c2C1Cc1cc2c(cc1-3)OCO2 (stereo not given) : -4.1

inhibition reading for COc1cc2c3c(c1OCC1CC1)-c1cc4c(cc1CC3N(C)CC2c1ccccc1)OCO4 (stereo not given) : 7.7
